- Test Target: Nuclear receptor subfamily 1 group D member 1 (Homo sapiens) (UniProt P20393)
- Sequence (P20393 whole entry, looked up): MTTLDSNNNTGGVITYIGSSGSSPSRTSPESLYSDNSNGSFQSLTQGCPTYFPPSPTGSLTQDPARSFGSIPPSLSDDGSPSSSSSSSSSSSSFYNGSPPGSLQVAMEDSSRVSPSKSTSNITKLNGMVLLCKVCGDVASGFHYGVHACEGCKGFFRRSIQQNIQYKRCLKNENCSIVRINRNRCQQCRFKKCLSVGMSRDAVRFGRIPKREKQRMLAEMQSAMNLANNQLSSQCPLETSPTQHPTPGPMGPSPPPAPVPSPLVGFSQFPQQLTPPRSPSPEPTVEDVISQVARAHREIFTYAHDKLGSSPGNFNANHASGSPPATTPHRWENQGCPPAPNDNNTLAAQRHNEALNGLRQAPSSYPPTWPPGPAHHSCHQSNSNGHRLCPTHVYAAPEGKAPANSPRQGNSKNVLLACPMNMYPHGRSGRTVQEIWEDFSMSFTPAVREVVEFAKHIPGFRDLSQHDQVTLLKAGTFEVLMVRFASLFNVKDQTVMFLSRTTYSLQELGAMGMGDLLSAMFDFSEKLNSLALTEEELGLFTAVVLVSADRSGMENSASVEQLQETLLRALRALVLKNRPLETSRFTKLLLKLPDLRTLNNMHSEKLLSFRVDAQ
- Assay Overview: modulators of Rev-erb alpha DNA binding, dose response, biochemical, FITC-DNA, fluorescence polarization (AID 1259321)
Calls of active or inactive are those of the source.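 The calls were made as follows: active = half-maximal concentration for changing protein binding to DNA, from the fitted dose curve, below 10 micromolar; inactive = the rest.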
Choose the fitting class; nothing outside active, inactive is accepted.

Request: What did the test return for "O=C1c2cccc3c(N4CCCCC4)ccc(c23)C(=O)N1CCO" ?
Response: inactive

Request: What did the test return for CCCCCCNC(=O)C(C#N)c1nc2ccccc2nc1N1CCOCC1 (stereo not given) ?
Response: inactive

Request: What did the test return for "COC(=O)c1ccc(NC(=O)c2cn(-c3ccccc3)nc2-c2ccncc2)cc1" ?
Response: inactive

Request: What did the test return for "O=c1[nH]c(Cc2ccc(F)cc2)nc2scc(-c3ccc(F)cc3)c12" ?
Response: active

Request: What did the test return for Cc1cccc(N2CCN(c3ccc4cc(S(=O)(=O)N5CCCCC5)ccc4n3)CC2C)c1 (stereo not given) ?
Response: active

Request: What did the test return for "CC(=O)c1cc2c(cc1N/C(=N/S(=O)(=O)c1ccc(C)cc1)c1ccc(Cl)cc1)OCO2" ?
Response: inactive

Request: What did the test return for Cc1cc(C(C)c2ccccc2)c(O)c(CN2CCOCC2)c1C (stereo not given) ?
Response: inactive

Request: What did the test return for "Cc1nn(C)c(C)c1NC(=O)CSc1nc(-c2ccccc2F)nc2c1cnn2-c1ccccc1" ?
Response: active

Request: What did the test return for "CCOC(=O)/C(=C\C=C1/Sc2cc(OCC)c(OCC)cc2N1CC)C(C)=O" ?
Response: active

Request: What did the test return for "CCN1/C(=C\c2ccc3ccccc3[n+]2CC)Sc2cc(C)ccc21" ?
Response: active

src = PubChem BioAssay AID1259321
